# assayed.target: HCV NS5B RdRp genotype 1b (Hepatitis C virus genotype 1b, UniProt Q9WMX2)
# Construct: The protein was expressed with an 18 amino acid C-terminal truncation to enhance the solubility; made in house; host or cells: E. coli BL21(DE3), pET21a vector
# Sequence (Q9WMX2 2420-2992): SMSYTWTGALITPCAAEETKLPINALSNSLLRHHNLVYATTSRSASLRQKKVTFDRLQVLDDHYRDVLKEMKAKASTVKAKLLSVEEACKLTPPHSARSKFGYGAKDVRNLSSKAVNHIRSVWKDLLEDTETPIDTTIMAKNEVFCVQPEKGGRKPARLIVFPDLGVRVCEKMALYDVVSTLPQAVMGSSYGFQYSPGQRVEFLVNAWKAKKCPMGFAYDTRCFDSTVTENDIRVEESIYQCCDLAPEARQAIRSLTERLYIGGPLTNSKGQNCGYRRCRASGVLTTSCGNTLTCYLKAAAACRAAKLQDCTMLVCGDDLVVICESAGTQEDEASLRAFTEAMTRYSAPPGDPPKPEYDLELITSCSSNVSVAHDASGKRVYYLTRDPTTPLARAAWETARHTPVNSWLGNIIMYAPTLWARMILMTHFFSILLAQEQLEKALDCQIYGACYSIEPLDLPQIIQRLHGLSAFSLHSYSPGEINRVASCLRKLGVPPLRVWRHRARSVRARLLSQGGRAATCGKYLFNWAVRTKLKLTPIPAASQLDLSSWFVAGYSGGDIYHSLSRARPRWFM
# assay.explanation: Standard HCV NS5B RdRp enzyme assay
# Type: biochemical
# condition.details: Table 1a; HCV NS5B RdRp genotype 1b; read-out: IC50
pIC50: −log10 of the molar value.
endpoint.label: pIC50

>>> reported_value("CNC(=O)c1c(-c2ccc(F)cc2)oc2ccc(-c3cccc(C(=O)NC(C)(C)C(=O)O)c3)cc12")
"6.00 to 6.60"
>>> reported_value("CNC(=O)c1c(-c2ccc(F)cc2)oc2ccc(-c3cccc(C(=O)Nc4nccs4)c3)cc12")
"> 6.60"
>>> reported_value("CNC(=O)c1c(-c2ccc(F)cc2)oc2ccc(-c3cccc(S(=O)(=O)NC)c3)cc12")
"< 5.00"
>>> reported_value("CNC(=O)c1c(-c2ccc(F)cc2)oc2ccc(-c3ccc(C(=O)NC4CC4)cc3)cc12")
"< 5.00"
>>> reported_value("CNC(=O)c1c(-c2ccc(F)cc2)oc2ccc(-c3cccc(C(=O)N[C@H](CO)Cc4c[nH]cn4)c3)cc12")
"5.00 to 6.00"
>>> reported_value("CCOC(=O)C1CCCN(C(=O)c2cccc(-c3ccc4oc(-c5ccc(F)cc5)c(C(=O)NC)c4c3)c2)C1 (stereo not drawn)")
"5.00 to 6.00"
>>> reported_value("CNC(=O)c1c(-c2ccc(F)cc2)oc2ccc(-c3cccc(C(=O)NC(C)(C)c4ccccc4)c3)cc12")
"> 6.60"
>>> reported_value("CNC(=O)c1c(-c2ccc(F)cc2)oc2ccc(-c3cc(C(F)(F)F)ccc3OC)cc12")
"< 5.00"
>>> reported_value("CCCCCNC(=O)c1cccc(-c2ccc3oc(-c4ccc(F)cc4)c(C(=O)NC)c3c2)c1")
"> 6.60"
>>> reported_value("CNC(=O)c1c(-c2ccc(F)cc2)oc2cc(NS(C)(=O)=O)c(-c3cccc(C(=O)NC(C)(C)c4ccccc4)c3)cc12")
"> 6.60"
>>> reported_value("CNC(=O)c1c(-c2ccc(F)cc2)oc2ccc(-c3ccc(C(=O)N4CCC[C@H]4CO)cc3)cc12")
"< 5.00"
>>> reported_value("CNC(=O)c1c(-c2ccc(F)cc2)oc2ccc(-c3cccc(C(=O)N[C@@H](CO)c4ccccc4)c3)cc12")
"6.00 to 6.60"

---

# Tested on: HCV replicon cells
# assay.explanation: HCV replicon FRET / luciferase assay (96-well plates)
# Type: cell-based
# condition.details: Hepatitis C virus, Table 1b; HCV replicon; read-out: EC50
pEC50: −log10 of the molar value.
# key: entry, value: pEC50
endpoint.label: pEC50

>>> reported_value("CNC(=O)c1c(-c2ccc(F)cc2)oc2ccc(-c3cc(C(=O)NCC(C)C)ccc3OCC(F)F)cc12")
"> 6.60"
>>> reported_value("CNC(=O)c1c(-c2ccc(F)cc2)oc2ccc(-c3ccc(-c4ccccc4Cl)c(C(=O)NCC(C)C)c3)cc12")
"> 6.60"
>>> reported_value("CNC(=O)c1c(-c2ccc(F)cc2)oc2cc(N(CCO)S(C)(=O)=O)c(-c3cccc(C(=O)NC(C)(C)c4ccc(F)cc4)c3)cc12")
"> 6.60"
>>> reported_value("CNC(=O)c1c(-c2ccc(F)cc2)oc2ccc(-c3cc(C(=O)NCC(C)C)ccc3OCC3CCCNC3)cc12 (centres unmarked)")
"> 6.60"
>>> reported_value("CNC(=O)c1c(-c2ccc(F)cc2)oc2ccc(-c3ccc(-c4cccc(OC)c4F)c(C(=O)NCC(C)C)c3)cc12")
"6.00 to 6.60"
>>> reported_value("CNC(=O)c1c(-c2ccc(F)cc2)oc2ccc(-c3cc(C(=O)NC(C)(C)C)ccc3C)cc12")
"> 6.60"
>>> reported_value("CCNC(=O)c1cc(-c2ccc3oc(-c4ccc(F)cc4)c(C(=O)NC)c3c2F)c(C)cc1OC")
"> 6.60"
>>> reported_value("CNC(=O)c1c(-c2ccc(F)cc2)oc2ccc(-c3cccc(C(=O)NC4(c5ccc(Cl)cc5)CC4)c3)cc12")
"> 6.60"
>>> reported_value("C#CCOc1cc(C(=O)NCC(C)C)cc(-c2ccc3oc(-c4ccc(F)cc4)c(C(=O)NC)c3c2)c1")
"5.00 to 6.00"
>>> reported_value("CNC(=O)c1c(-c2ccc(F)cc2)oc2ccc(-c3cc(C(=O)NC4(c5nnc(C(C)C)[nH]5)CC4)ccc3C)cc12")
"> 6.60"
>>> reported_value("CNC(=O)c1c(-c2ccc(F)cc2)oc2ccc(-c3ccc(-c4cccc(C(=O)O)c4)c(C(=O)NCC(C)C)c3)cc12")
"5.00 to 6.00"
>>> reported_value("CNC(=O)c1c(-c2ccc(F)cc2)oc2ccc(-c3cc(C(=O)NC4(c5noc(C)n5)CC4)ccc3C)cc12")
"> 6.60"
>>> reported_value("CNC(=O)c1c(-c2ccc(F)cc2)oc2ccc(-c3cc(C(=O)NC4(c5nnc(-c6ccccc6Cl)[nH]5)CC4)ccc3C)cc12")
"> 6.60"
>>> reported_value("CNC(=O)c1c(-c2ccc(F)cc2)oc2cc(N(CCO)S(C)(=O)=O)c(-c3cccc(C(=O)NC(C)(C)C(=O)Nc4cc(C)no4)c3)cc12")
"> 6.60"
